Numbers sourced from patent US6242494A.

- Assay Target: methionine aminopeptidase-2 (MetAP2) (Homo sapiens)
- Construct: made in house; host or cells: insect cells, baculovirus system (secreted, purified from culture supernatant)
- Experiment Summary: Inhibition of MetAP2 enzyme activity (96-well, Met-Ala-Ser substrate, L-amino acid oxidase/peroxidase/ortho-dianisidine, 450 nm)
- Type: biochemical
- Test Settings: IC50, recombinant MetAP2 4 μg/mL, pH 7.4, Met-Ala-Ser substrate, 20 minutes
Where a name gives a salt, the structure may show the parent alone.
Experimental Endpoint: pIC50
Keep in mind that pIC50 stands for -log10 of concentration in molar terms.

COc1ccc(NC(C)=O)cc1NC(=O)C(O)[C@H](N)CC1CCCCC1 (mixture of isomers) [Example 178, hydrochloride] = 4.96
CSCC[C@@H](N)C(O)C(=O)O (mixture of isomers) = 6.82
C[C@H](NC(=O)C(O)[C@H](N)CC1CCCCC1)C(=O)Nc1ncc(Br)s1 (stereo partly shown) [Example 70, hydrochloride] = 5.27
N[C@H](CC1CCCCC1)C(O)C(=O)NCCc1cccc(F)c1 (mixture of isomers) [Example 166, hydrochloride] = 6.23
N[C@H](CC1CCCCC1)C(O)C(=O)NCCc1ccc(Br)cc1 (mixture of isomers) [Example 201, Hydrochloride] = 6.15
COc1ccc(OC)c(NC(=O)C(O)[C@H](N)CC2CCCCC2)c1 (mixture of isomers) [Example 177, hydrochloride] = 5.70

// below: pIC50 requested for another compound
Could you share which pIC50 value was measured for Cc1ccc(S(=O)(=O)NCCCCNC(=O)C(O)[C@H](N)CC2CCCCC2)cc1 (stereo partly shown) [Example 80, hydrochloride] ? 5.89

* * *

- Assay Target: methionine aminopeptidase-2 (MetAP2) (Homo sapiens)
- Construct: made in house; host or cells: insect cells, baculovirus system (secreted, purified from culture supernatant)
- Experiment Summary: Inhibition of MetAP2 enzyme activity (96-well, Met-Ala-Ser substrate, L-amino acid oxidase/peroxidase/ortho-dianisidine, 450 nm)
- Assay type: biochemical
- Test Settings: IC50, recombinant MetAP2 4 μg/mL, pH 7.4, Met-Ala-Ser substrate, 20 minutes
Structures can show the parent of a compound that is named as a salt.
Each entry below carries its reported pIC50.
Keep in mind that pIC50 stands for -log10 of concentration in molar terms.

Some molecules with recorded pIC50:
COc1ccc(NC(=O)C(O)[C@H](N)CC2CCCCC2)cc1 (mixture of isomers) = 5.92
N[C@H](CC1CCCCC1)C(O)C(=O)N[C@H]1C[C@@H]1c1ccccc1 (mixture of isomers) [Example 229, Hydrochloride] = 5.92
CC(C)OCCCNC(=O)C(O)[C@H](N)CC1CCCCC1 (mixture of isomers) [Example 213, Hydrochloride] = 5.59

// below: pIC50 requested for another molecule
Could you share which pIC50 value was measured for N[C@H](CC1CCCCC1)C(O)C(=O)NCCC(c1ccccc1)c1ccccc1 (mixture of isomers) [Example 216, Hydrochloride] ? 5.74

* * *

- Assay Target: methionine aminopeptidase-2 (MetAP2) (Homo sapiens, UniProt P50579)
- Construct: made in house; host or cells: insect cells, baculovirus system (secreted, purified from culture supernatant)
- Sequence (P50579 whole entry): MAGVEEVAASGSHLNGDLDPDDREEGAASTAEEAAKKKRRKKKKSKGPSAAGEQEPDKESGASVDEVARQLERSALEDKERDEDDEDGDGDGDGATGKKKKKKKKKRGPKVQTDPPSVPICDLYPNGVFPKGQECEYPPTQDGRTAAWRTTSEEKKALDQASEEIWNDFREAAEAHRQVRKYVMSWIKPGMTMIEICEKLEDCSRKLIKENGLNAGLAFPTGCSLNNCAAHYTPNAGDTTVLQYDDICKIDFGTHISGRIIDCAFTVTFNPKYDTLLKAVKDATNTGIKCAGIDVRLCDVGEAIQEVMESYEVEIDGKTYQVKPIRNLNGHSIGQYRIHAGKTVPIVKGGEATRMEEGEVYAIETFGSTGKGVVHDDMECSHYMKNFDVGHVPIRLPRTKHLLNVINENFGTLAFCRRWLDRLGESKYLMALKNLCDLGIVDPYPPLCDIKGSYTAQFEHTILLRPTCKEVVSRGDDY
- Experiment Summary: Inhibition of MetAP2 enzyme activity (96-well, Met-Ala-Ser substrate, L-amino acid oxidase/peroxidase/ortho-dianisidine, 450 nm)
- Type: biochemical
- Test Settings: IC50, recombinant MetAP2 4 μg/mL, pH 7.4, Met-Ala-Ser substrate, 20 minutes
Where a name gives a salt, the structure may show the parent alone.
Each entry below carries its reported log10 IC50.
Form field - Quantity: IC50; Unit: µM; Scale: log10

Some compounds with recorded log10 IC50:
COc1cc(CCNC(=O)[C@H](C)NC(=O)C(O)[C@H](N)CC2CCCCC2)ccc1O (stereo partly shown) [Example 66, hydrochloride] = 1.00
CCOC(=O)C1CCN(C(=O)[C@H](C)NC(=O)C(O)[C@H](N)CC2CCCCC2)CC1 (stereo partly shown) [Example 63, hydrochloride] = 1.30
COc1ccc(CNC(=O)C(O)[C@H](N)CC2CCCCC2)cc1 (mixture of isomers) [Example 186, hydrochloride] = 0.04

Could you share which log10 IC50 value was measured for CC(C)(NC(=O)C(O)[C@H](N)CC1CCCCC1)C(=O)OCc1ccccc1 (stereo partly shown) [Example 89, Hydrochloride] ? 0.82

Could you share which log10 IC50 value was measured for COc1cc2c(cc1NC(=O)C(O)[C@H](N)CC1CCCCC1)oc1ccccc12 (mixture of isomers) [Example 179, hydrochloride] ? 0.69

Could you share which log10 IC50 value was measured for N[C@H](CC1CCCCC1)C(O)C(=O)Nc1ccc(F)cc1 (mixture of isomers) [Example 144] ? 0.32

Could you share which log10 IC50 value was measured for CSCC[C@@H](N)C(O)C(=O)N(C)CCc1ccccc1 (stereo partly shown) [Example 33, hydrochloride] ? 0.40

* * *

- Assay Target: methionine aminopeptidase-2 (MetAP2) (Homo sapiens)
- Construct: made in house; host or cells: insect cells, baculovirus system (secreted, purified from culture supernatant)
- Experiment Summary: Inhibition of MetAP2 enzyme activity (96-well, Met-Ala-Ser substrate, L-amino acid oxidase/peroxidase/ortho-dianisidine, 450 nm)
- Assay type: biochemical
- Test Settings: IC50, recombinant MetAP2 4 μg/mL, pH 7.4, Met-Ala-Ser substrate, 20 minutes
Counter-ions that a name gives are not always drawn.
Experimental Endpoint: pIC50
Keep in mind that pIC50 stands for -log10 of concentration in molar terms.

N[C@H](CC1CCCCC1)C(O)C(=O)NCCNc1ccc([N+](=O)[O-])cn1 (stereo partly drawn) [Example 57, dihydrochloride] = 5.51
COc1ccc(CCNC(=O)C(O)[C@H](N)CCSC)cc1 (mixture of isomers) [Example 8, hydrochloride] = 5.64

Could you share which pIC50 value was measured for C[C@H](NC(=O)C(O)[C@H](N)CC1CCCCC1)C(=O)OCc1ccc(C(C)(C)C)cc1 (stereo partly drawn) [Example 93, Hydrochloride] ? 5.27

Could you share which pIC50 value was measured for N[C@H](CC1CCCCC1)C(O)C(=O)NCCc1cccc(C(F)(F)F)c1 (mixture of isomers) [Example 200, Hydrochloride] ? 5.82

* * *

- Assay Target: methionine aminopeptidase-2 (MetAP2) (Homo sapiens)
- Construct: made in house; host or cells: insect cells, baculovirus system (secreted, purified from culture supernatant)
- Experiment Summary: Inhibition of MetAP2 enzyme activity (96-well, Met-Ala-Ser substrate, L-amino acid oxidase/peroxidase/ortho-dianisidine, 450 nm)
- Assay type: biochemical
- Test Settings: IC50, recombinant MetAP2 4 μg/mL, pH 7.4, Met-Ala-Ser substrate, 20 minutes
Counter-ions that a name gives are not always drawn.
Experimental Endpoint: IC50
Form field: result (number plus unit)

Could you share what IC50 was measured for CCOC(=O)CCCNC(=O)C(O)[C@H](N)Cc1ccccc1 (mixture of isomers) [Example 21, hydrochloride] , tested on methionine aminopeptidase-2 (MetAP2) (Homo sapiens)? 14 µM

Could you share what IC50 was measured for C[C@@H](NC(=O)C(O)[C@H](N)CC1CCCCC1)c1cccc2ccccc12 (mixture of isomers) [Example 134, hydrochloride] , tested on methionine aminopeptidase-2 (MetAP2) (Homo sapiens)? 3.1 µM

Could you share what IC50 was measured for CC(=O)Nc1ccc(S(=O)(=O)NCCCCNC(=O)C(O)[C@H](N)CC2CCCCC2)cc1 (stereo partly shown) [Example 86, hydrochloride] , tested on methionine aminopeptidase-2 (MetAP2) (Homo sapiens)? 1.7 µM

Could you share what IC50 was measured for COc1ccc(CCNC(=O)C(O)[C@H](N)CCSC)cc1 (stereo partly shown) [Example 27] , tested on methionine aminopeptidase-2 (MetAP2) (Homo sapiens)? 1.7 µM

Could you share what IC50 was measured for CCOC(=O)C(C)(C)NC(=O)C(O)[C@H](N)CCSCC (stereo partly shown) [Example 35, hydrochloride] , tested on methionine aminopeptidase-2 (MetAP2) (Homo sapiens)? 0.11 µM

Could you share what IC50 was measured for COc1cc(NC(=O)C(O)[C@H](N)CC2CCCCC2)cc(OC)c1 (mixture of isomers) [Example 161, hydrochloride] , tested on methionine aminopeptidase-2 (MetAP2) (Homo sapiens)? 0.62 µM

Could you share what IC50 was measured for N[C@H](CC1CCCCC1)C(O)C(=O)N[C@@H](CO)C(=O)OCc1ccc(C(F)(F)F)cc1 (stereo partly shown) [Example 140] , tested on methionine aminopeptidase-2 (MetAP2) (Homo sapiens)? 2.2 µM

Could you share what IC50 was measured for C[C@H](NC(=O)C(O)[C@H](N)CC1CCCCC1)C(=O)OC1CCCCC1 (stereo partly shown) [Example 90, Hydrochloride] , tested on methionine aminopeptidase-2 (MetAP2) (Homo sapiens)? 2.3 µM

Could you share what IC50 was measured for N[C@H](CC1CCCCC1)C(O)C(=O)NC12CC3CC(CC(C3)C1)C2 (mixture of isomers) [Example 202, Hydrochloride] , tested on methionine aminopeptidase-2 (MetAP2) (Homo sapiens)? 8.3 µM

Could you share what IC50 was measured for CCOC(=O)CCCNC(=O)C(O)[C@H](N)CCSCC (mixture of isomers) [Example 16, hydrochloride] , tested on methionine aminopeptidase-2 (MetAP2) (Homo sapiens)? 0.78 µM

Could you share what IC50 was measured for Cc1ncc([N+](=O)[O-])n1CCNC(=O)[C@H](C)NC(=O)C(O)[C@H](N)CC1CCCCC1 (stereo partly shown) [Example 61, hydrochloride] , tested on methionine aminopeptidase-2 (MetAP2) (Homo sapiens)? 13 µM

Could you share what IC50 was measured for N[C@H](CC1CCCCC1)C(O)C(=O)Nc1ccccc1Cl (mixture of isomers) [Example 149] , tested on methionine aminopeptidase-2 (MetAP2) (Homo sapiens)? 0.93 µM

Could you share what IC50 was measured for CC(C)CCCC(C)NC(=O)C(O)[C@H](N)CC1CCCCC1 (stereo partly shown) [Example 211, Hydrochloride] , tested on methionine aminopeptidase-2 (MetAP2) (Homo sapiens)? 2.4 µM
